The measured values listed here are drawn from paper PMC3411462.

Experiment: Brain and plasma concentrations in mice after intraperitoneal administration (LC-MS-MS), non-compartmental analysis
Type: in vivo
Conditions: male, Swiss-Webster, mouse, plasma, intraperitoneal, 10 mg/kg, 0.5 h, 10 mg/kg; read-out: Conc (plasma, NCA input)
Protocol: Doses are reported by weight of the specified salt. […] Body mass was measured to ±0.1 g. Mice were sacrificed by cervical dislocation, then decapitated for collection of brain and blood samples. […] Drug concentrations (ng mL^-1) refer to the free base, and were measured by liquid chromatography-tandem mass spectrometry (LC-MS-MS) as described previously. […] Compounds were detected in positive ion mode, tuned to the mass transition with the largest intensity. […]
ASSAY READOUT: concentration at 0.5 h (µg/mL)
Report only the number, with the unit µg/mL understood.

See these solved cases before continuing.
| COMPOUND | ASSAY READOUT | UNIT INFO | VALUE OBSERVED |
| --- | --- | --- | --- |
| CC(C)[C@@H](CN1CC[C@@](C)(c2cccc(O)c2)[C@@H](C)C1)NC(=O)[C@H]1Cc2ccc(O)cc2CN1 [JDTic] | concentration at 0.5 h | µg/mL | 0.245 |
| Oc1ccc2c3c1O[C@H]1c4[nH]c5c(c4C[C@@]4(O)[C@@H](C2)N(CC2CC2)CC[C@]314)C[C@@]1(O)[C@H]2Cc3ccc(O)c4c3[C@@]1(CCN2CC1CC1)[C@H]5O4 [nor-BNI, norbinaltorphimine] | concentration at 0.5 h | µg/mL | 4.03 |

Let's switch to this compound now.
Which value of concentration at 0.5 h has been reported for N=C(N)Nc1ccc2[nH]c3c(c2c1)C[C@@]1(O)[C@H]2Cc4ccc(O)c5c4[C@@]1(CCN2CC1CC1)[C@H]3O5 [GNTI, 5’-guanidinonaltrindole] in the records?
3.08
